Reported Ki is given for each of the following binders.
Target: T1, human MC4 receptor (human, UniProt P32245 1-332)
T1 construct: whole, on cells; Assayed as membranes of BHK cells stably expressing the receptor; also called melanocortin receptor subtype 4; melanocortin receptor 4
T1 sequence (P32245 whole entry): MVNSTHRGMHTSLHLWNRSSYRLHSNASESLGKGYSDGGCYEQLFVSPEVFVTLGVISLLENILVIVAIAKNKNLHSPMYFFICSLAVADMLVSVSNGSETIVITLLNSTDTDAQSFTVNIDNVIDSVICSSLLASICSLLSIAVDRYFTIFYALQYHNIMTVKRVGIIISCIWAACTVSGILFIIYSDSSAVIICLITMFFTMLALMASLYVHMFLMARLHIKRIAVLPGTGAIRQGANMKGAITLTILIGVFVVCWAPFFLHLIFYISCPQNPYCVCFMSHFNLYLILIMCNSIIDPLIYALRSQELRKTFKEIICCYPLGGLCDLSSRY
Experiment: 125I-NDP-α-MSH displacement, BHK-human MC4 membranes (Assay V);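 further: Filter-retained radioactivity read by gamma counting, with affinity obtained through non-linear regression fitting of the binding curves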
Positions of bridges follow the written chain, without caps; N, C: chain ends. Non-standard residues stand in square brackets, D forms with d. Groups on a side chain read outwards from the residue. Primed or numbered codes have the meaning given here. *: point of attachment. bis(carboxymethyl) = Lys(biscarboxymethyl) = N6-bis(carboxymethyl)-L-lysine; Palmitoyl(16-(5-tetrazolyl)) = O=C(CCCCCCCCCCCCCCCc1nnn[nH]1)*; biscarboxymethyl(3) = Nepsilon-bis(carboxymethyl) on Lys; Orn = NCCC[C@H](N)C(=O)O; Dab = NCC[C@H](N)C(=O)O; AEEA = NCCOCCOCC(=O)O
assay metric: Ki (nM)

• Ac-[Dab]H[dF]RWDPPRDK(biscarboxymethyl(3))K([AEEA-Palmitoyl(16-(5-tetrazolyl))])-NH2 (lactam 1-6) = 31
• Ac-[Orn]H[dF]RWDPSSSK(bis(carboxymethyl))SSK([AEEA-Palmitoyl(16-(5-tetrazolyl))])-NH2 (lactam 1-6) = 0.9
